- Tested on: Erythrocyte
- Assay Protocol: Hemolytic activity in human erythrocytes incubated for 1 hr by ELISA reader analysis
- Type: toxicity, cell-based
Square brackets hold non-standard residues; d marks the D form. Peptide text beside a SMILES is read from it. 2Nal = N[C@@H](Cc1ccc2ccccc2c1)C(=O)O; Aoc(2) = CCCCCC[C@H](N)C(=O)O; hLeu = CC(C)CC[C@H](N)C(=O)O
Assay Readout: HC10 (µM)
Express it in µM; write the number only.

Example results:
Exam item: Lab note: need HC10 with Erythrocyte for entry CCCCCC[C@H](NC(=O)[C@H](CC(C)C)NC(=O)[C@@H](NC(=O)[C@H](CCCCN)NC(=O)[C@@H](NC(=O)[C@H](CCCNC(=N)N)NC(=O)[C@H](CCCCN)NC(=O)[C@H](CC(C)C)NC(=O)[C@H](CCCCCC)NC(=O)CN)[C@@H](C)CC)[C@@H](C)O)C(N)=O (H-G[Aoc(2)]LKRIKTL[Aoc(2)]-NH2) , please look it up.
Marked response: 71

Exam item: Lab note: need HC10 with Erythrocyte for entry CC[C@H](C)[C@H](NC(=O)[C@H](CCCNC(=N)N)NC(=O)[C@H](CCCCN)NC(=O)[C@H](CC(C)C)NC(=O)[C@H](CCC(C)C)NC(=O)CN)C(=O)N[C@@H](CCCCN)C(=O)N[C@H](C(=O)N[C@@H](CC(C)C)C(=O)N[C@@H](CCC(C)C)C(N)=O)[C@@H](C)O (H-G[hLeu]LKRIKTL[hLeu]-NH2) , please look it up.
Marked response: 380

Others:
Exam item: Lab note: need HC10 with Erythrocyte for entry CC[C@H](C)[C@H](NC(=O)[C@H](CCCNC(=N)N)NC(=O)[C@H](CCCCN)NC(=O)[C@H](Cc1ccc2ccccc2c1)NC(=O)CN)C(=O)N[C@@H](CCCCN)C(=O)N[C@H](C(=O)N[C@@H](CC(C)C)C(=O)N[C@@H](CC(C)C)C(N)=O)[C@@H](C)O (H-G[2Nal]KRIKTLL-NH2) , please look it up.
Marked response: 300

* * *

- System: Bacillus subtilis
- Assay Protocol: Antimicrobial activity against Bacillus subtilis assessed as microbial growth inhibition incubated for 24 hrs by broth micro-dilution method
- Assay type: functional
Peptide text beside a SMILES is read from it.
As shown below, each of these compounds has a reported MIC value.
Express it in µM; write the number only.

Exam item: Fill in the blank: the reported MIC of CC[C@H](C)[C@H](NC(=O)[C@H](CCCCN)NC(=O)[C@H](CCCCN)NC(=O)[C@H](CC(C)C)NC(=O)[C@H](CC(C)C)NC(=O)CN)C(=O)N[C@@H](CCCCN)C(=O)N[C@@H](CCCNC(=N)N)C(=O)N[C@@H](CC(C)C)C(=O)N[C@@H](CC(C)C)C(N)=O (H-GLLKKIKRLL-NH2) is ____.
Marked response: 170

Exam item: Fill in the blank: the reported MIC of CC[C@H](C)[C@H](NC(=O)[C@H](Cc1ccccc1)NC(=O)[C@H](CCCCN)NC(=O)[C@H](CC(C)C)NC(=O)[C@H](CC(C)C)NC(=O)[C@@H](N)CCCCN)C(=O)N[C@@H](CCCCN)C(=O)N[C@@H](CCCCN)C(=O)N[C@@H](CC(C)C)C(=O)N[C@@H](CC(C)C)C(N)=O (H-KLLKFIKKLL-NH2) is ____.
Marked response: 35.6

Exam item: Fill in the blank: the reported MIC of CC[C@H](C)[C@H](NC(=O)[C@H](Cc1ccccc1)NC(=O)[C@H](CCCCN)NC(=O)[C@H](CC(C)C)NC(=O)[C@H](CC(C)C)NC(=O)CN)C(=O)N[C@@H](CCCCN)C(=O)N[C@@H](CCCNC(=N)N)C(=O)N[C@@H](CC(C)C)C(=O)N[C@@H](CC(C)C)C(N)=O (H-GLLKFIKRLL-NH2) is ____.
Marked response: 167

Exam item: Fill in the blank: the reported MIC of CC[C@H](C)[C@H](NC(=O)[C@H](Cc1ccccc1)NC(=O)[C@H](CCCCN)NC(=O)[C@H](CC(C)C)NC(=O)[C@H](CC(C)C)NC(=O)[C@@H](N)CCCNC(=N)N)C(=O)N[C@@H](CCCCN)C(=O)N[C@@H](CCCCN)C(=O)N[C@@H](CC(C)C)C(=O)N[C@@H](CC(C)C)C(N)=O (H-RLLKFIKKLL-NH2) is ____.
Marked response: 31.5

Exam item: Fill in the blank: the reported MIC of CC[C@H](C)[C@H](NC(=O)[C@H](CCCCN)NC(=O)[C@H](CC(C)C)NC(=O)[C@H](CC(C)C)NC(=O)CN)C(=O)N[C@H](C(=O)N[C@@H](CCCCN)C(=O)N[C@@H](CCCNC(=N)N)C(=O)N[C@@H](CC(C)C)C(=O)N[C@@H](CC(C)C)C(N)=O)[C@@H](C)CC (H-GLLKIIKRLL-NH2) is ____.
Marked response: 8.6

Others:
Exam item: Fill in the blank: the reported MIC of CC[C@H](C)[C@H](NC(=O)[C@H](CCCCN)NC(=O)[C@H](CC(C)C)NC(=O)[C@H](CC(C)C)NC(=O)CN)C(=O)N[C@H](C(=O)N[C@@H](CCCCN)C(=O)N[C@@H](CCCCN)C(=O)N[C@@H](CC(C)C)C(=O)N[C@@H](CC(C)C)C(N)=O)[C@@H](C)CC (H-GLLKIIKKLL-NH2) is ____.
Marked response: 5.9

Exam item: Fill in the blank: the reported MIC of CC[C@H](C)[C@H](NC(=O)[C@H](CCCNC(=N)N)NC(=O)[C@H](CCCCN)NC(=O)[C@H](CCCCN)NC(=O)[C@H](CC(C)C)NC(=O)CN)C(=O)N[C@@H](CCCCN)C(=O)N[C@@H](CCCCN)C(=O)N[C@@H](CC(C)C)C(=O)N[C@@H](CC(C)C)C(N)=O (H-GLKKRIKKLL-NH2) is ____.
Marked response: 13
